Target: Ac-VQIINK-NH2 (SEQ ID NO: 23) (N-terminal acetyl (Ac); C-terminal amide (NH2))
Experiment: cell-based or functional assay
Square brackets hold non-standard residues; d marks the D form. Ends that are not written are not given here. dCit = NC(=O)NCCC[C@@H](N)C(=O)O
I'd appreciate it if you marked entries criterion met when VQIINK Inhibition IC50 is lower than 2 µm and criterion not met when it is not.

The following binders have reported results that may help.
binder	label.value
[dF][dR][dL][dK][dI][dR][dW] [frlkirw]	criterion met
[dL][dK][dI][dCit][dI][dH][dY] [lkizihy]	criterion not met
[dF][dR][dI][dK][dL][dK][dW][dH] [friklkwh]	criterion met

A record lists [dW][dH][dV][dK][dF][dE][dL][dF] [whvkfelf] . Is its VQIINK Inhibition IC50 below 2 µm? criterion not met

Is the reported VQIINK Inhibition IC50 for [dF][dR][dL][dR][dI][dW][dW][dF] [frlriwwf] strictly below 2 µm? criterion not met

Given [dW][dR][dL][dK][dT][dR][dW] [wrlktrw] , is recorded VQIINK Inhibition IC50 strictly lower than 2 µm? criterion not met

Criterion: VQIINK Inhibition IC50 strictly below 2 µm. Is it met by [dK][dV][dR][dW][dW][dL][dR][dW] [kvrwwlrw] ? criterion not met

Does the reported VQIINK Inhibition IC50 of the following binder sit strictly below 2 µm? [dW][dA][dL][dK][dV][dR][dW] [walkvrw] criterion not met

Confirm or reject: VQIINK Inhibition IC50 of [dL][dK][dI][dR][dI][dH][dA] [lkiriha] lies strictly below 2 µm criterion not met

State whether 2 µm exceeds VQIINK Inhibition IC50 recorded for [dW][dK][dV][dQ][dV][dR][dW] [wkvqvrw] . criterion not met

Does this binder meet the criterion VQIINK Inhibition IC50 < 2 µm? [dL][dK][dI][dR][dR][dH][dY][dH] [lkirrhyh] criterion not met

Please indicate whether the reported VQIINK Inhibition IC50 of [dW][dR][dL][dK][dV][dD][dW] [wrlkvdw] is strictly below 2 µm. criterion not met

Please state whether VQIINK Inhibition IC50 is below 2 µm for [dF][dE][dL][dH][dI][dK][dW][dH] [felhikwh] criterion met

is_below(VQIINK Inhibition IC50, 2 µm) for [dL][dK][dI][dR][dI][dH][dL][dH] [lkirihlh] ? criterion met

Entry source: patent US20200216495A1
